- Tested on: Escherichia coli TOP10
- procedure-details: shrunken log2 fold change of peptide-encoding DNA abundance (4.5 h post-induction vs induction); higher = less antimicrobial activity (less host growth inhibition)
- reported-conditions: time post-induction: 4.5 h; library: site-saturation at positions 5, 18, 19, 20
Values of shrunken log2 fold change greater than or equal to 0.03 map to satisfied; values below map to not satisfied.

Recorded results for 6 sequences are shown here.
1. RRIRWRPPRLPRPRPRPKPDPRP | satisfied
2. RRIRHRPPRLPRPRPRPCRLPRP | not satisfied
3. RRIRNRPPRLPRPRPRPLYIPRP | not satisfied
4. RRIRSRPPRLPRPRPRPMVPPRP | not satisfied
5. RRIRTRPPRLPRPRPRPMCRPRP | not satisfied
6. RRIRSRPPRLPRPRPRPAKQPRP | satisfied

Textbook exercise: given the entry `RRIRVRPPRLPRPRPRPFWTPRP` , state whether its shrunken log2 fold change is greater than or equal to 0.03.
not satisfied

# iterate: `RRIRWRPPRLPRPRPRPEVFPRP`
satisfied

###

- Test system: Escherichia coli TOP10
- procedure-details: shrunken log2 fold change of peptide-encoding DNA abundance (4.5 h post-induction vs induction); higher = less antimicrobial activity (less host growth inhibition)
- reported-conditions: time post-induction: 4.5 h; library: site-saturation at positions 5, 18, 19, 20
The following ranges of shrunken log2 fold change define the classes used here: low: < -0.08; medium: ≥ -0.08 and < 0.06; high: ≥ 0.06

1. RRIRLRPPRLPRPRPRPFAWPRP | medium
2. RRIRIRPPRLPRPRPRPWREPRP | high
3. RRIRWRPPRLPRPRPRPLVVPRP | high
4. RRIRHRPPRLPRPRPRPGQEPRP | medium
5. RRIRHRPPRLPRPRPRPVDMPRP | low

Which bin, given its shrunken log2 fold change, does `RRIRQRPPRLPRPRPRPWIYPRP` occupy?
medium

Check `RRIRGRPPRLPRPRPRPRCFPRP` too.
high

And what about the sequence `RRIRARPPRLPRPRPRPYDEPRP` ?
medium

###

Entries annotated with measured shrunken log2 fold change
- Test system: Escherichia coli TOP10
- procedure-details: shrunken log2 fold change of peptide-encoding DNA abundance (4.5 h post-induction vs induction); higher = less antimicrobial activity (less host growth inhibition)
- reported-conditions: time post-induction: 4.5 h; library: site-saturation at positions 5, 18, 19, 20
Keep it simple and answer with nothing but the number.

The following sequences have reported results that may help.
1. RRIRGRPPRLPRPRPRPIQAPRP | 1.16
2. RRIRERPPRLPRPRPRPHSFPRP | 0.0142
3. RRIRHRPPRLPRPRPRPFPPPRP | -0.228
4. RRIRLRPPRLPRPRPRPSVAPRP | -0.0589
5. RRIRSRPPRLPRPRPRPMVTPRP | -0.134

Please look up its shrunken log2 fold change: `RRIRKRPPRLPRPRPRPPSQPRP`
0.866

For `RRIRGRPPRLPRPRPRPYADPRP` then?
0.0582

Moving on to the next sequence: `RRIRIRPPRLPRPRPRPTGGPRP`
-0.00471

###

Let's look at some sequences and their measured shrunken log2 fold change.
- Test system: Escherichia coli TOP10
- procedure-details: shrunken log2 fold change of peptide-encoding DNA abundance (4.5 h post-induction vs induction); higher = less antimicrobial activity (less host growth inhibition)
- reported-conditions: time post-induction: 4.5 h; library: site-saturation at positions 5, 18, 19, 20
Simply state the number, no unit and no words.

1) RRIRSRPPRLPRPRPRPCFFPRP | -0.248

Reported shrunken log2 fold change, sequence `RRIRGRPPRLPRPRPRPYECPRP` : ____
-0.075

Okay, and `RRIRGRPPRLPRPRPRPKCPPRP` ?
0.625

Now the sequence `RRIRHRPPRLPRPRPRPFNYPRP`
0.0485

Please give the result for `RRIRCRPPRLPRPRPRPNCPPRP` too.
-0.413

Record: `RRIRHRPPRLPRPRPRPGDAPRP`
0.0297

Note, next up: `RRIRGRPPRLPRPRPRPGVMPRP`
1.05

Can you check `RRIRQRPPRLPRPRPRPCNIPRP` next?
-0.646

Try the sequence `RRIRTRPPRLPRPRPRPMIAPRP`
0.000989

###

- Test system: Escherichia coli TOP10
- procedure-details: shrunken log2 fold change of peptide-encoding DNA abundance (4.5 h post-induction vs induction); higher = less antimicrobial activity (less host growth inhibition)
- reported-conditions: time post-induction: 4.5 h; library: site-saturation at positions 5, 18, 19, 20
Lab note: compare shrunken log2 fold change against 0.05. Equal or greater, write TRUE. Smaller, write FALSE.

Given `RRIRIRPPRLPRPRPRPVRDPRP` , state whether its shrunken log2 fold change is at least 0.05.
TRUE

Entry to check: `RRIRKRPPRLPRPRPRPAGMPRP`
FALSE

Item: `RRIRYRPPRLPRPRPRPLYNPRP`
FALSE

###

- Tested on: Escherichia coli TOP10
- procedure-details: shrunken log2 fold change of peptide-encoding DNA abundance (4.5 h post-induction vs induction); higher = less antimicrobial activity (less host growth inhibition)
- reported-conditions: time post-induction: 4.5 h; library: site-saturation at positions 5, 18, 19, 20
observed-property: shrunken log2 fold change
Response field accepts a number only; no unit should be typed.

1) RRIRGRPPRLPRPRPRPDLEPRP | 0.288

State the recorded shrunken log2 fold change for this entry: `RRIRTRPPRLPRPRPRPSDNPRP`
-0.697

Same again, this time with `RRIRTRPPRLPRPRPRPYHVPRP`
-0.0196

Can you handle `RRIRNRPPRLPRPRPRPRTPPRP` next?
0.261

Next record, please: `RRIRFRPPRLPRPRPRPLNNPRP`
-0.767

Please answer likewise for `RRIRDRPPRLPRPRPRPQIEPRP`
-0.0186

Another sequence to look at: `RRIRCRPPRLPRPRPRPDFDPRP`
-0.0217

###

- System: Escherichia coli TOP10
- procedure-details: shrunken log2 fold change of peptide-encoding DNA abundance (4.5 h post-induction vs induction); higher = less antimicrobial activity (less host growth inhibition)
- reported-conditions: time post-induction: 4.5 h; library: site-saturation at positions 5, 18, 19, 20
observed-property: shrunken log2 fold change
In your answer, state the number alone without any accompanying words.

1. RRIRHRPPRLPRPRPRPSHFPRP | -0.0233

Let us examine a further case.
Quick check: shrunken log2 fold change of `RRIRTRPPRLPRPRPRPHFCPRP` ?
0.0392

###

- Test system: Escherichia coli TOP10
- procedure-details: shrunken log2 fold change of peptide-encoding DNA abundance (4.5 h post-induction vs induction); higher = less antimicrobial activity (less host growth inhibition)
- reported-conditions: time post-induction: 4.5 h; library: site-saturation at positions 5, 18, 19, 20
Criterion: shrunken log2 fold change meeting or surpassing -0.06. Met: satisfied. Not met: not satisfied.

Check if shrunken log2 fold change >= -0.06 (inclusive). Item: `RRIRIRPPRLPRPRPRPFTEPRP`
satisfied

`RRIRCRPPRLPRPRPRPDYTPRP` , same question.
not satisfied

Next: `RRIRCRPPRLPRPRPRPVFRPRP`
not satisfied

// same read-out, input: `RRIRNRPPRLPRPRPRPDNDPRP`
not satisfied

Moving on to `RRIRPRPPRLPRPRPRPLGMPRP`
not satisfied

Same lookup for `RRIRVRPPRLPRPRPRPVQCPRP` , please.
satisfied

Lookup `RRIRFRPPRLPRPRPRPGSKPRP`
not satisfied

Entry to check: `RRIRDRPPRLPRPRPRPFFKPRP`
not satisfied

Then this sequence: `RRIRYRPPRLPRPRPRPTDIPRP`
satisfied

Please do the same for `RRIRFRPPRLPRPRPRPMPRPRP` as well.
satisfied

Again, but for `RRIRMRPPRLPRPRPRPWPIPRP`
satisfied

###

- Test system: Escherichia coli TOP10;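 also: peptides expressed intracellularly from a pBAD plasmid library in pooled LB shake-flask culture, induced with 0.3% L-arabinose, DNA abundance read by NGS, three biological replicates, DESeq2 with apeglm shrinkage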
- procedure-details: shrunken log2 fold change of peptide-encoding DNA abundance (4.5 h post-induction vs induction); higher = less antimicrobial activity (less host growth inhibition)
- reported-conditions: time post-induction: 4.5 h; library: site-saturation at positions 5, 18, 19, 20
Hi, to clarify the labels: yes covers shrunken log2 fold change from -0.03 upward, no covers anything below -0.03.

1) RRIRSRPPRLPRPRPRPTKHPRP | no
2) RRIRKRPPRLPRPRPRPKHIPRP | yes
3) RRIRFRPPRLPRPRPRPFFDPRP | no
4) RRIRARPPRLPRPRPRPFGKPRP | yes
5) RRIRDRPPRLPRPRPRPWIFPRP | yes
6) RRIRMRPPRLPRPRPRPNNMPRP | no
7) RRIRFRPPRLPRPRPRPLVQPRP | no
8) RRIRTRPPRLPRPRPRPMCIPRP | no
9) RRIRVRPPRLPRPRPRPMQYPRP | no
10) RRIRMRPPRLPRPRPRPFHKPRP | yes

Assess whether reported shrunken log2 fold change for `RRIRGRPPRLPRPRPRPGRCPRP` sits at -0.03 or higher.
yes

Same again, this time with `RRIRVRPPRLPRPRPRPVLVPRP`
no

Note, next up: `RRIRFRPPRLPRPRPRPKCQPRP`
yes

// next record `RRIRFRPPRLPRPRPRPLPHPRP`
no

Now consider `RRIRFRPPRLPRPRPRPQDCPRP` .
yes

What about this sequence? `RRIRKRPPRLPRPRPRPVVYPRP`
no

Entry to check: `RRIRNRPPRLPRPRPRPFITPRP`
no

`RRIRPRPPRLPRPRPRPIETPRP` , same question.
yes

For `RRIRQRPPRLPRPRPRPPAMPRP` then?
no

Let us now turn to `RRIRWRPPRLPRPRPRPTYKPRP`
no
